The origin of these recorded values is patent US5994369A.

# system.name: Sigma receptors (Homo sapiens)
# Sequence (Q99720 whole entry): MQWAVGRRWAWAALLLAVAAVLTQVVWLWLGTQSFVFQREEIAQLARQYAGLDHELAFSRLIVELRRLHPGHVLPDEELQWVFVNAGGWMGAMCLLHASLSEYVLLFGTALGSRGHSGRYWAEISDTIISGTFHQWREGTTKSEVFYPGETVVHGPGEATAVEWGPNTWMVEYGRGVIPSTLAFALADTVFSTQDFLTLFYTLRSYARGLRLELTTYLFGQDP

molecule	uom	Ki
CC12CC3CC(C)(C1)CC(N)(C3)C2 [Memantine]	µM	20
CC(C)(C)N1CCC(c2ccccc2)(c2ccccc2)CC1	µM	2

----------
Below, each of the compounds is paired with its reported Ki value.
# system.name: NMDA receptors
# assay.name: NMDA receptor affinity (MK 801 binding)

compound	uom	Ki
NC12CC3CC(CC(C3)C1)C2	µM	10.5
CC12CC3CC(C)(C1)CC(N)(C3)C2 [Memantine]	µM	0.5
CC(C)(C)N1CCC(c2ccccc2)(c2ccccc2)CC1	µM	11.7
